System: Plasmodium falciparum
run_description: In vitro antiplasmodial activity for Plasmodium falciparum
Format: functional, organism-based
assay_setup: Plasmodium falciparum
test_readout: IC50 (nM)
Numeric only. Scale: nM

Any idea what its IC50 is? The compound is "C[n+]1c2cc(Cl)ccc2cc2[nH]c3ccccc3c21.[Cl-]" 448

Any idea what its IC50 is? The compound is "COc1ccc2c(c1)cc1[nH]c3ccccc3c1[n+]2C.[Cl-]" 950

Any idea what its IC50 is? The compound is "Cc1ccc2c(c1)cc1[nH]c3ccccc3c1[n+]2C.[Cl-]" 419

Any idea what its IC50 is? The compound is "C[n+]1c2cc(Cl)c(Cl)cc2cc2[nH]c3ccccc3c21.[Cl-]" 356

Any idea what its IC50 is? The compound is "C[n+]1c2c(Cl)cccc2cc2[nH]c3ccccc3c21.[Cl-]" 4690

Any idea what its IC50 is? The compound is "C[n+]1c2ccc(Cl)c(Cl)c2cc2[nH]c3ccccc3c21.[Cl-]" 88
